Give IC50 for every item shown.
molecular target: gamma-secretase (partially purified extract of IMR-32 cell membranes; substrate MBP-C125 Swe fusion protein, cleavage at the Aβ40 site) (Homo sapiens, UniProt P49768); construct: a partially purified extract of IMR-32 cell membranes as the gamma-secretase enzyme preparation; endogenous in cells; host or cells: IMR-32 cell membranes, partially purified extract; assay: Gamma-secretase APP enzyme assay (Example A); type: biochemical; conditions: class symbols; assay described in Example A; read-out: γAPP IC50

The following compounds have reported results that may help.
O=S(=O)(c1ccc(C(F)(F)F)nc1)N1C2c3c[nH]nc3[C@H](O)C1c1c(F)cccc12 (stereo partly shown) [compound 239] :: > 1000 nM
O=S(=O)(c1ccc(C(F)(F)F)cc1)N1C2Cc3[nH]ncc3C1c1ncccc12 (single isomer, unassigned) [compound 101] :: < 100 nM
O=S(=O)(c1ccc(C(F)(F)F)nc1)N1C2Cc3[nH]ncc3C1c1cc(F)ccc12 (single isomer, unassigned) [compound 180] :: < 100 nM
O=C1CCCN1c1ccc(C2CC3Cc4n[nH]cc4C(C2)N3S(=O)(=O)c2ccc(C(F)(F)F)cc2)cc1 (stereo not shown) [compound 141] :: < 100 nM
O=S(=O)(c1ccc(C(F)(F)F)cn1)N1C2Cc3[nH]ncc3C1c1c(F)cccc12 (racemic) [compound 211] :: < 100 nM
COC(=O)c1cccc2c1C1Cc3[nH]ncc3C2N1S(=O)(=O)c1ccc(C(F)(F)F)nc1 (racemic) [compound 220] :: < 100 nM
O=S(=O)(c1ccc(C(F)(F)F)cc1)N1C2c3ccccc3C1C(F)(F)c1[nH]ncc12 (racemic) [compound 74] :: < 100 nM
O=S(=O)(c1ccc(C(F)(F)F)nc1)N1C2Cc3n[nH]cc3C1c1cc(F)c(F)cc12 (single isomer, unassigned) [compound 111] :: < 100 nM

Please supply IC50 for each of the following items, keeping them in order.
1. O=S(=O)(c1ccc(C(F)(F)F)cc1)N1C2Cc3[nH]ncc3C1CC(c1cccc(-n3cccn3)c1)C2 (stereo not shown) [compound 133]
2. O=S(=O)(c1ccc(C(F)(F)F)nc1)N1C2Cc3[nH]ncc3C1c1cccc(-c3ccc(F)cc3)c12 (racemic) [compound 266]
3. NC1CCCCC1Nc1ccc(C2CC3Cc4n[nH]cc4C(C2)N3S(=O)(=O)c2ccc(C(F)(F)F)cc2)cc1 (stereo not shown) [compound 117]
4. O=S(=O)(c1ccc(C(F)(F)F)cc1)N1C2Cc3[nH]ncc3C1c1ccc3ccccc3c12 (stereo not shown) [compound 168]

*A*
1. < 100 nM
2. < 100 nM
3. > 1000 nM
4. < 100 nM

Below are 4 compounds. Give each one its IC50.
1. O=S(=O)(c1ccc(C(F)(F)F)nc1)N1C2Cc3n[nH]cc3C1c1cc(F)c(F)cc12 (racemic) [compound 105]
2. Cc1nc(C2CC3Cc4[nH]ncc4C(C2)N3S(=O)(=O)c2ccc(C(F)(F)F)cc2)n(C)n1 (racemic) [compound 80]
3. Cc1cc(C2CC3Cc4[nH]ncc4C(C2)N3S(=O)(=O)c2ccc(Cl)cc2)on1 (racemic) [compound 76]
4. O=S(=O)(c1ccc(Cl)cc1)N1C2Cc3[nH]ncc3C1CC(c1c[nH]nn1)C2 (racemic) [compound 93]

*A*
1: < 100 nM; 2: 500 to 999 nM; 3: < 100 nM; 4: < 100 nM
